Provide the reported growth of each item.
# Test system: UACC-257 melanoma
# PROTOCOL_SUMMARY: NCI-60 one-dose screen, 48 h (100 = growth as untreated, 0 = no growth, -100 = all killed)
# PROTOCOL_CONDITIONS: 10 µM unless noted
This is part of a sample that, as a whole, favours compounds with a hit. Of some 83,000 tested, about 20% had one in any assay. The source made the active and inactive calls. The calls were made as follows: active = growth percent below 10; inactive = the rest.

**Q:** May I ask what growth has been recorded for "Cn1c2c(Cl)c(Cl)ccc2c2c(C#N)c[nH]c(=O)c21" ?
**A:** 98.1% (inactive)

**Q:** May I ask what growth has been recorded for "c1cc(N2CCCC2)c2nc(-c3[nH]ncc3Nc3ncnc4[nH]ccc34)[nH]c2c1" ?
**A:** -12.8% (active)

**Q:** May I ask what growth has been recorded for "Cc1cc(N2CCCCC2)nc(N(CCCNc2ccnc3cc(Cl)ccc23)Cc2ccco2)n1" ?
**A:** 49.4% (inactive)

**Q:** May I ask what growth has been recorded for "CCCCC[C@H]1CC=C2C(=O)C(Cl)=C[C@@H]2CC=CCCCC(=O)O[C@@H](CCCCC)CC=C2C(=O)C(Cl)=C[C@@H]2CC=CCCCC(=O)O[C@@H](CCCCC)CC=C2C(=O)C(Cl)=C[C@@H]2CC=CCCCC(=O)O1" ?
**A:** 76.3% [8 µM] (inactive)

**Q:** May I ask what growth has been recorded for "Cn1cc(-c2csc(-c3cn(CCNC(=O)OC(C)(C)C)c4ccccc34)n2)c2cccnc21" ?
**A:** 92.2% (inactive)

**Q:** May I ask what growth has been recorded for "Oc1ccc(Nc2ccccc2)cc1" ?
**A:** 110% (inactive)

**Q:** May I ask what growth has been recorded for "CC1(C)C=CC[C@]2(C)[C@H]3CC[C@@H]4[C@H]5[C@H](C(=O)/C=C/c6cccnc6)CC[C@]5(CO)CC[C@@]4(C)[C@]3(C)CC[C@@H]12" ?
**A:** -49.7% (active)

**Q:** May I ask what growth has been recorded for "Cc1ccc(-c2nc([P+](c3ccccc3)(c3ccccc3)c3ccccc3)c(N3CCOCC3)o2)cc1" ?
**A:** -4.98% (active)

**Q:** May I ask what growth has been recorded for "C=C(C)[C@@H]1CC[C@]2(C(=O)NNC(=O)c3cccnc3)CC[C@]3(C)[C@H](CC[C@@H]4[C@@]5(C)CCCNC(C)(C)[C@@H]5CC[C@]43C)[C@@H]12" ?
**A:** 61.9% (inactive)

**Q:** May I ask what growth has been recorded for "Cc1oc(-c2ccccc2Cl)cc1C(=O)Nc1ccc(S(N)(=O)=O)cc1" ?
**A:** 95% (inactive)

**Q:** May I ask what growth has been recorded for "CC(C)=CCC[C@](C)(O)[C@H]1CC[C@]2(C)[C@@H]1CC[C@@H]1[C@@]3(C)C/C(=C/c4ccc(Br)cc4)C(=O)C(C)(C)[C@@H]3CC[C@]12C" ?
**A:** 91.2% (inactive)

**Q:** May I ask what growth has been recorded for "COc1cnc2c(c1)C(=O)c1c-2n(CCCNCCN2CCOCC2)c(=O)c2cc([N+](=O)[O-])ccc12" ?
**A:** 5.34% (active)

**Q:** May I ask what growth has been recorded for "O=C1CCCC=CC[C@H]2C=C(Cl)C(=O)C2=CC[C@H](CCCCC(F)(F)F)OC(=O)CCCC=CC[C@H]2C=C(Cl)C(=O)C2=CC[C@H](CCCCC(F)(F)F)OC(=O)CCCC=CC[C@H]2C=C(Cl)C(=O)C2=CC[C@H](CCCCC(F)(F)F)O1" ?
**A:** 79.3% [6.25 µM] (inactive)

**Q:** May I ask what growth has been recorded for "Cc1ccc2[nH]cc(-c3nc(-c4cn(C)c5ncccc45)cs3)c2c1" ?
**A:** 94% (inactive)

**Q:** May I ask what growth has been recorded for "O=C(O)/C(=C/c1ccc(O)cc1)c1ccccc1" ?
**A:** 90.3% (inactive)

**Q:** May I ask what growth has been recorded for "Cc1cc2nc3c4cc(O)ccc4n(CCN(C)C)c3nc2cc1C" ?
**A:** -15.1% (active)

**Q:** May I ask what growth has been recorded for "O=C1c2cc3c(cc2-c2c1c1ccc(F)cc1c(=O)n2CCCN1CCOCC1)OCO3" ?
**A:** 62.7% (inactive)

**Q:** May I ask what growth has been recorded for "COc1cc(/C=N/NC(=S)NNC(=S)NC2CCCCC2)cc(OC)c1OC" ?
**A:** 107% (inactive)

**Q:** May I ask what growth has been recorded for "COc1cc(-c2c(C#N)c(-c3cccs3)nc3c2c(-c2ccccc2)nn3-c2ccccc2)ccc1O" ?
**A:** 81.3% (inactive)

**Q:** May I ask what growth has been recorded for "COc1cc2[nH]c(C(=O)c3cc(OC)c(OC)c(OC)c3)c(N)c2cc1C#CCO" ?
**A:** 71.2% (inactive)

**Q:** May I ask what growth has been recorded for "NNC(=O)c1nc2ccccc2[nH]1" ?
**A:** 65.9% (inactive)

**Q:** May I ask what growth has been recorded for "Oc1cc(/C=C/c2nc(N3CCOCC3)c3cc(Cl)c(Cl)cc3n2)cc(O)c1O" ?
**A:** 99.8% (inactive)

**Q:** May I ask what growth has been recorded for "O=c1c2sc3ncc(Br)cc3c2ncn1-c1cccc(Cl)c1" ?
**A:** 88.4% (inactive)

**Q:** May I ask what growth has been recorded for "c1cnc2[nH]cc(-c3csc(-c4cn(CCCN5CCCCC5)c5ccccc45)n3)c2c1" ?
**A:** 92% (inactive)

**Q:** May I ask what growth has been recorded for "O=C1/C(=C\C(Cl)=C/c2ccc([N+](=O)[O-])cc2)SC(=S)N1CCc1ccc(O)cc1" ?
**A:** 4.06% (active)

**Q:** May I ask what growth has been recorded for "C=C(C)[C@@H]1CC[C@]2(C=NCCCNCCCCNCCCN)CC[C@]3(C)[C@H](CC[C@@H]4[C@@]5(C)CCCNC(C)(C)[C@@H]5CC[C@]43C)[C@@H]12" ?
**A:** 107% (inactive)

**Q:** May I ask what growth has been recorded for "NC(N)=N/N=C/c1ccc(-c2ccc(-c3ccc(Cl)cn3)s2)cc1" ?
**A:** 109% (inactive)

**Q:** May I ask what growth has been recorded for "CN(C)CCCCC(C(=O)CBr)(c1ccccc1)c1ccccc1" ?
**A:** 6.07% (active)

**Q:** May I ask what growth has been recorded for "c1ccc2[nH]c(-c3cc(-c4ccc5c(c4)OCO5)n[nH]3)nc2c1" ?
**A:** 66.4% (inactive)

**Q:** May I ask what growth has been recorded for "NS(=O)(=O)c1ccc(CCNC(=O)/C=C/c2ccc(Cl)cc2)cc1" ?
**A:** 104% (inactive)

**Q:** May I ask what growth has been recorded for "COc1ccc2nc(-c3c(-c4ccccc4)nc4ncccn34)[nH]c2c1" ?
**A:** 105% (inactive)

**Q:** May I ask what growth has been recorded for "CC1(C)C(=O)/C(=C\c2ccccn2)C[C@]2(C)[C@H]3CC[C@@H]4[C@@H](C(=O)/C=C/c5ccccn5)CC[C@@]4(C)[C@]3(C)CC[C@@H]12" ?
**A:** 7.39% (active)

**Q:** May I ask what growth has been recorded for "Cc1cc(N(CCCNc2ccnc3cc(Cl)ccc23)Cc2ccco2)nc(Cl)n1" ?
**A:** 59.9% (inactive)

**Q:** May I ask what growth has been recorded for "C/C(=N/NC(N)=S)C(=O)O" ?
**A:** 61.1% (inactive)

**Q:** May I ask what growth has been recorded for O=C(c1ccccc1)C(CN1CCOCC1)c1ccccc1 (stereo not given) ?
**A:** 51.5% (inactive)
